biological target: T1, human CLDN18.2 (human); test: flow cytometry, live cells from mouse tumor of A549 cells expressing CLDN18.2, antibody 4 µg/ml
T1 construct: also called huCLDN18.2; hCLDN18.2
reported_endpoint: % of positive tumor cells (Average) (%)
Respond with the bare value in %.

For the binder hCl1a (antibody, human IgG1, kappa, V domains shown, Humanized) VH: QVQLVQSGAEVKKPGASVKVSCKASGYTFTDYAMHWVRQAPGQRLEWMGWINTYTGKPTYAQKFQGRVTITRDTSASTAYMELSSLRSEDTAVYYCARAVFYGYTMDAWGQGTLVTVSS VL: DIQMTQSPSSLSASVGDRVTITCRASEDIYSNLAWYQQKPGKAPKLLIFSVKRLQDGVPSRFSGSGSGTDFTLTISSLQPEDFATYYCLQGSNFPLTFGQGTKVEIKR , give its measured % of positive tumor cells (Average) value. 26
